Source listed as patent US6083956A.

system-under-test: recombinant human androgen receptor (hAR) (Homo sapiens)
Construct: made in house; host or cells: Sf9 insect cells (baculovirus)
Sequence (P10275 whole entry): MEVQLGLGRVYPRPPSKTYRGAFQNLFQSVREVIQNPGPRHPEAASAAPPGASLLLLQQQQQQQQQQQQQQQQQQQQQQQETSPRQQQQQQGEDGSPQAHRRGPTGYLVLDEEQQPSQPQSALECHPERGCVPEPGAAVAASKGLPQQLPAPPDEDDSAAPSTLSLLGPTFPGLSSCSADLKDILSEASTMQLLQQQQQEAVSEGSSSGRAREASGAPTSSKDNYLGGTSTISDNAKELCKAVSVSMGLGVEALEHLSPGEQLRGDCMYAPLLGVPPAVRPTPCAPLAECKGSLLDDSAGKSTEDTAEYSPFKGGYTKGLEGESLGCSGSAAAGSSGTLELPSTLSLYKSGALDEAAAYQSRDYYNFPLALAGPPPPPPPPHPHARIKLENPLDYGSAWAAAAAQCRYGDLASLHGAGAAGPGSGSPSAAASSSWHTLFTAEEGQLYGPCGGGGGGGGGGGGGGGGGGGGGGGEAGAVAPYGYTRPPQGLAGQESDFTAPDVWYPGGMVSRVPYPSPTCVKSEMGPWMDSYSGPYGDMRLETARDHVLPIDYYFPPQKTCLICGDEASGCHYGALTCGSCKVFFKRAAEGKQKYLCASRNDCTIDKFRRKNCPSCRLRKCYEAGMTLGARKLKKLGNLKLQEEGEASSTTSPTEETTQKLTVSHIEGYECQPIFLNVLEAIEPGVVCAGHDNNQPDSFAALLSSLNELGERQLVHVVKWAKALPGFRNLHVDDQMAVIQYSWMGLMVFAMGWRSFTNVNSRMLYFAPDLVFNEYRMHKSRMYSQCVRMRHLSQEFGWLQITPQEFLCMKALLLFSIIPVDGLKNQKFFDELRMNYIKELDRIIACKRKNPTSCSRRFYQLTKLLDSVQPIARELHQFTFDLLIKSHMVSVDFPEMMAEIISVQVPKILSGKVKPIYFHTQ
protocol-details: Human Androgen Receptor Binding Analysis (competitive binding vs 3H-dihydrotestosterone)
test-parameters: baculovirus/Sf9 generated hAR extract, 1 nM 3H-DHT tracer, hydroxylapatite, one hour at 4° C; read-out: hAR Binding IC50
value-kind: pIC50
Give bare numbers, as −log10 of the molar value.

Incoming: Short answer please: pIC50, recombinant human androgen receptor (hAR) (Homo sapiens), entry CCC1CCNc2cc3oc(=O)cc(C(F)(F)F)c3cc21 (racemic) [Racemate (±), reference compound]
Outgoing: 7.46

* * *

system-under-test: recombinant human androgen receptor (hAR) (Homo sapiens)
Construct: made in house; host or cells: Sf9 insect cells (baculovirus)
protocol-details: Human Androgen Receptor Binding Analysis (competitive binding vs 3H-dihydrotestosterone)
test-parameters: hAR Binding IC50, baculovirus/Sf9 generated hAR extract, 1 nM 3H-DHT tracer, hydroxylapatite, one hour at 4° C
value-kind: pIC50
One number for each entry, as −log10 of the molar value.

CCC1CCNc2cc3oc(=O)cc(C(F)(F)F)c3cc21 (single isomer, unassigned; (+)) [(+) Enantiomer] :: 6.95

Kindly review the next molecule as well.
Incoming: Sample CCC1CCNc2cc3oc(=O)cc(C(F)(F)F)c3cc21 (single isomer, unassigned; (-)) [(-) Enantiomer] — what was its pIC50?
Outgoing: 8.30
